Biological target: human serum albumin (HSA) (Homo sapiens, UniProt P02768)
Sequence (P02768 25-609): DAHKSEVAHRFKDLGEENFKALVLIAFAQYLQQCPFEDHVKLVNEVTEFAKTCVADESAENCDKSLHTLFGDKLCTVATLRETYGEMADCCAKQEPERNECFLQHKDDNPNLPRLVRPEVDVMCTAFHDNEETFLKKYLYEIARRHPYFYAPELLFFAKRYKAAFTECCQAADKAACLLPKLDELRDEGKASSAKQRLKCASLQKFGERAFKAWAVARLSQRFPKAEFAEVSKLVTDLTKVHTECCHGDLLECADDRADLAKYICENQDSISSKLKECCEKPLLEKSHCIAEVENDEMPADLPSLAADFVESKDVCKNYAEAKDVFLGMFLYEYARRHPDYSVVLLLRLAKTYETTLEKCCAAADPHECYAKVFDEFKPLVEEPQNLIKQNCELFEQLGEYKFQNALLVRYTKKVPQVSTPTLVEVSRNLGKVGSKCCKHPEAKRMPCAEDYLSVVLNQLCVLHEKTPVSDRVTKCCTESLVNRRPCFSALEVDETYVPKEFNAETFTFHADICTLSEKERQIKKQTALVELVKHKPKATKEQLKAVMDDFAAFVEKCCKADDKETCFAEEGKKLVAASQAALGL
Conditions: pH 7.4
As shown below, each of these compounds has a reported k HSA value.

Query string: May I ask what k HSA has been recorded for O=C1CN=C(c2ccccn2)c2cc(Br)ccc2N1 ?
Result string: 0.63

Query string: Can you check Cc1ccc(O)c([C@H](CCN(C(C)C)C(C)C)c2ccccc2)c1 next?
Result string: 2.9

Query string: Try Cc1ccc(-c2nc3ccc(C)cn3c2CC(=O)N(C)C)cc1 next.
Result string: 1.77

Query string: Query O=C(O)COC(=O)Cc1ccccc1Nc1c(Cl)cccc1Cl next
Result string: 55.89

Query string: # repeat for CN1C(=O)CC(=O)N(c2ccccc2)c2cc(Cl)ccc21
Result string: 1.01

Query string: And for COc1ccc(C(CN(C)C)C2(O)CCCCC2)cc1 (stereo not shown) ?
Result string: 1.05

Query string: Now consider Cc1cc2c(s1)Nc1ccccc1N=C2N1CCN(C)CC1 .
Result string: 4.83

Query string: Next: CC(C)C[C@H]1C(=O)N2CCC[C@H]2[C@]2(O)O[C@](NC(=O)[C@@H]3C=C4c5cccc6[nH]c(Br)c(c56)C[C@H]4N(C)C3)(C(C)C)C(=O)N12
Result string: 8.09

Others:
Query string: Reported k HSA for CN1CCN(C(=O)OC2c3nccnc3C(=O)N2c2ccc(Cl)cn2)CC1 (stereo not shown) : what is it?
Result string: 0.76

Query string: Same question, CN1CCN=C(c2ccccc2)c2cc(Cl)ccc21 this time
Result string: 17.86

Query string: Entry to check: Cc1ncc2n1-c1ccc(Cl)cc1C(c1ccccc1F)=NC2
Result string: 3.22

Query string: Check CN(C)C(=O)C(CCN1CCC(O)(c2ccc(Cl)cc2)CC1)(c1ccccc1)c1ccccc1 [loperamide] too.
Result string: 4.47

Query string: Record: Cc1nc2n(c(=O)c1CCN1CCC(c3noc4cc(F)ccc34)CC1)CCCC2
Result string: 2.11

###

Molecular target: bovine serum albumin (BSA) (Bos taurus)
Construct: purchased Sigma Aldrich
Sequence (P02769 25-607): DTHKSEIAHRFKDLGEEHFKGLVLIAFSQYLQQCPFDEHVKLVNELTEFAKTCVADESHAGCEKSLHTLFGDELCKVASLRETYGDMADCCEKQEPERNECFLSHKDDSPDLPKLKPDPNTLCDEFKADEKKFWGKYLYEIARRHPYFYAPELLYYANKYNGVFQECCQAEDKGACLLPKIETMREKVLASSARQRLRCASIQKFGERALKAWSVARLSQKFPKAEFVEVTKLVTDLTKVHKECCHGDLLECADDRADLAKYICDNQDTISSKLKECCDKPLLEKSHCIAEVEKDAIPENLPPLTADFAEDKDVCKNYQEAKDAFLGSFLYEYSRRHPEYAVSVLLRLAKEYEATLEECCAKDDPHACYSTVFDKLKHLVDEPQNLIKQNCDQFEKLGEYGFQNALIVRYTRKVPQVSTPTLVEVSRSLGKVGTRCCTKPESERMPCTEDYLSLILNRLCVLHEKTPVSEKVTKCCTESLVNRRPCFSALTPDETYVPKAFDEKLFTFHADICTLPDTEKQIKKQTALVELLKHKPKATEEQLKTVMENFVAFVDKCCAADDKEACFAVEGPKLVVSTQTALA
Assay: NP TLC on plates impregnated with bovine serum albumin
Type: binding
Conditions: Table S3, NP plate impregnated with 2 mg/mL BSA; pH 7.4 mobile phase
Catalogue of NP (Rf, BSA-impregnated NP plate) readings, one per entry.
Write the value as a bare number.

// known answers, use as guide
Query string: Requested field: NP (Rf, BSA-impregnated NP plate). Item: Clc1cccc(Cl)c1N=C1NCCN1 [clonidine]
Result string: 0.50

Query string: Continue with CN(C)C(=O)C(CCN1CCC(O)(c2ccc(Cl)cc2)CC1)(c1ccccc1)c1ccccc1 [loperamide]
Result string: 0.67

Query string: # repeat for CC(C)c1nc(N(C)S(C)(=O)=O)nc(-c2ccc(F)cc2)c1/C=C/[C@@H](O)C[C@@H](O)CC(=O)O [rosuvastatin]
Result string: 0.89

Query string: Request: Cc1cncc(CN2CCC(=C3c4ccc(Cl)cc4CCc4cccnc43)CC2)c1 [rupatadine]
Result string: 0.43

Query string: What do we get for C[C@]12C=CC(=O)C=C1CC[C@@H]1[C@@H]2[C@@H](O)C[C@@]2(C)[C@H]1CC[C@]2(O)C(=O)CO [prednizolone] ?
Result string: 0.94

More entries:
Query string: Fill in the blank: the reported NP (Rf, BSA-impregnated NP plate) of NS(=O)(=O)c1cc(C2(O)NC(=O)c3ccccc32)ccc1Cl (stereo not drawn) [chlortalidone] is ____.
Result string: 0.96

Query string: Then this molecule: COc1cc(N)c(Cl)cc1C(=O)NC1CCN(CCCOc2ccc(F)cc2)CC1OC (stereo not drawn) [cisapride]
Result string: 0.63

Query string: Proceed to CN(C)CCCN1c2ccccc2Sc2ccccc21 [promazine]
Result string: 0.37

Query string: Now the molecule CC(C)NCC(O)COc1cccc2ccccc12 (stereo not drawn) [propranolol]
Result string: 0.50
